The reader will find reported activity change, less the hit threshold values listed item by item below.
# Subject Of Test: Potassium voltage-gated channel subfamily KQT member 2 (Rattus norvegicus) (UniProt O88943)
# Sequence (O88943 whole entry, looked up): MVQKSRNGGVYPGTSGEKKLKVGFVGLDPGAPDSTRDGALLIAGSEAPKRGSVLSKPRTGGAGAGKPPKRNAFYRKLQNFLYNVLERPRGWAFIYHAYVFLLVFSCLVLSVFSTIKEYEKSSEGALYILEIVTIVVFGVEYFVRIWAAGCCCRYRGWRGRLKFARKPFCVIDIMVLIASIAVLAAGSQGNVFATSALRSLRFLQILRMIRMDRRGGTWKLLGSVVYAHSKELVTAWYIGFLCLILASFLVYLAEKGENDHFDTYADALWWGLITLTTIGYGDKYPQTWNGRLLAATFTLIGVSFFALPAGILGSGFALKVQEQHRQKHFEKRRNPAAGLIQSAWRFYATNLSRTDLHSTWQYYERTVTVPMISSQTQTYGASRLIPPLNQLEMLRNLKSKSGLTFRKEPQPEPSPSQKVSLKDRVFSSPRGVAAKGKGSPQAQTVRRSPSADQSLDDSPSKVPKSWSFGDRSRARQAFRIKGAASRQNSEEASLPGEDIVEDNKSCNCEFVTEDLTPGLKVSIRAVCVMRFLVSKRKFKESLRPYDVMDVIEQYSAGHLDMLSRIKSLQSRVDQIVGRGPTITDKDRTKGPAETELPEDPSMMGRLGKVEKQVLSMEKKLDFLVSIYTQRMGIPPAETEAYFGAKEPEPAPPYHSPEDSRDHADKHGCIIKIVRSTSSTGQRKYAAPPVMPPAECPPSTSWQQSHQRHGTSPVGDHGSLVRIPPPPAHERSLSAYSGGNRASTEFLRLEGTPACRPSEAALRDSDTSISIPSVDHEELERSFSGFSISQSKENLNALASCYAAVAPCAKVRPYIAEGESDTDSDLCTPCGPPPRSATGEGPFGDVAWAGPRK
# Measurement Description: KCNQ2 potentiation in CHO cells – cell-based, FluxOR thallium flux, counter-screen for hERG block protector project, confirmation (AID 1942);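 further: normalized value minus buffer-control mean plus three SD of buffer wells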
# Condition Set: FluxOR thallium flux fluorescence, at 10 µM, hits give high values
The campaign covered roughly 2,400 compounds. About 580 (24%) were called active. Only a sample is shown.
Measured Quantity: activity change, less the hit threshold (%)

- O=C(NC(=S)Nc1ccccc1Cl)c1ccco1: 10.4
- COc1cccc([C@@H]2Oc3ccc(OC)cc3C(=O)[C@H]2OC(=O)NCc2ccc3c(c2)OCO3)c1: -12.3
- N=C1SCC(=O)N1c1ncc(Cc2ccccc2Cl)s1: -20.8
- CCOC(=O)C1=C(Cn2cnc3ccccc32)NC(=O)NC1c1cc(C)ccc1C (stereo not given): -19.4
- CC(Oc1ccc(Cl)cc1Cl)C(=O)NC(=S)N1CCc2ccccc21 (stereo not given): 24.1

Values compiled from PubChem BioAssay AID1942.
